Listing of pKi toward Melanocortin receptor 4 (Homo sapiens, UniProt P32245), each taken from a published source.
Reminder that pKi is minus the log10 of a molar concentration.

Query block: Which measured pKi value corresponds to CC(NC1CCCNC1)c1ccccc1N1CCN(C(=O)[C@@H](Cc2ccc(Cl)cc2)NC(=O)C(N)c2ccccc2)CC1 (stereo not given in full) ?
Result block: 7.47

Further cases:
Query block: Return reported pKi; argument: "N=C(N)NCCC[C@H](NC(=O)[C@@H](Cc1ccccc1)NC(=O)[C@H](Cc1cnc[nH]1)NC(=O)CCC(=O)O)C(=O)N[C@@H](Cc1c[nH]c2ccccc12)C(=O)N[C@@H](CCCCN)C(N)=O"
Result block: 6.20

Query block: // query pKi value for entry "CC(C)N1C[C@@H](C(=O)N2CCN(c3ccccc3CN3CCNCC3)CC2)[C@H](c2ccc(Cl)cc2)C1"
Result block: 6.44

Query block: Given the compound "CNC(=O)[C@H](Cc1ccc2ccccc2c1)N1CCN(C(=O)[C@@H](Cc2ccccc2)NC(=O)[C@H](Cc2c[nH]cn2)NC(C)=O)[C@@H](CCCN=C(N)N)C1=O" , what is its reported pKi?
Result block: 9.10

Query block: Using the record for "CCC(=O)N[C@@H](Cc1c[nH]cn1)C(=O)N[C@@H](Cc1ccccc1)C(=O)N[C@@H](CCCN=C(N)N)C(=O)N[C@@H](Cc1c[nH]c2ccccc12)C(N)=O" , report its pKi.
Result block: 6.80

###

For reference, the following pKi results for Melanocortin receptor 4 (Homo sapiens) were taken from various sources.
pKi field: float, defined as -log10 of concentration (mol/L).

Query block: Requested read-out pKi, target or system Melanocortin receptor 4 (Homo sapiens), entry "CC(=O)N[C@H](Cc1ccc(O)cc1)C(=O)N[C@H](Cc1ccccc1)C(=O)N1C[C@H](OCc2ccccc2)C[C@@H]1CCCN=C(N)N"
Result block: 8.00

Query block: Please state recorded pKi (tested on Melanocortin receptor 4 (Homo sapiens)) of "CC(C)N1C[C@H](C(=O)N2CCN(C3(CNCc4nccn4C)CCCCC3)CC2)[C@@H](c2ccc(Cl)cc2)C1"
Sequence (P32245 whole entry): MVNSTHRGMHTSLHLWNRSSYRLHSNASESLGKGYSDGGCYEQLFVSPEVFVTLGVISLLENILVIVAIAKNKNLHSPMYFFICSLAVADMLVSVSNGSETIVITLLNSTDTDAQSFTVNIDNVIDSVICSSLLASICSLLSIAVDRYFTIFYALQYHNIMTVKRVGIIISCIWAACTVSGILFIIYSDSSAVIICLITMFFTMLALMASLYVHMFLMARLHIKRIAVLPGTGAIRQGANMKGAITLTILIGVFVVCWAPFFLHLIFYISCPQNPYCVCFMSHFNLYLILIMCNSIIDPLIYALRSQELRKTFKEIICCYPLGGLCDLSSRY
Result block: 6.41

Query block: Melanocortin receptor 4 (Homo sapiens) / pKi / CCN(CC)CC(c1ccccc1C)N1CCN(C)CC1 (centres undefined) : value?
Result block: 7.15

***
Query block: Give Melanocortin receptor 4 (Homo sapiens) pKi for "NC(N)=NCCNC(=O)[C@H]1C[C@@H](OCc2ccc3ccccc3c2)CN1C(=O)[C@@H](Cc1ccccc1)NC(=O)C1CCNCC1"
Result block: 5.99

###

From various publications: Ki for Melanocortin receptor 4 (Homo sapiens).
The label is label 1 for Ki below 0.6 µM and label 0 for Ki equal to or exceeding 0.6 µM.

As a guide, the following entries are already answered.
Query block: Does "COc1cccc(CCC(=O)N2CCN(c3ccc(C(F)(F)F)cc3[C@@H](N)CC(C)C)CC2)c1" have Ki strictly under 0.6 µM?
Result block: label 0

Query block: Threshold test, Ki < 0.6 µM: "CC(C)N1C[C@@H](C(=O)N2CCN(c3ccccc3Cn3cnnc3)CC2)[C@H](c2ccc(Cl)cc2)C1"
Result block: label 1

Query block: Take the molecule "CCCC[C@H](NC(=O)[C@@H](NC(=O)[C@@H](N)Cc1ccc(O)cc1)C(C)C)C(=O)NCC(=O)N[C@@](C)(Cc1ccccc1)C(=O)N[C@@H](Cc1ccccc1)C(=O)N[C@@H](CCCN=C(N)N)C(=O)N[C@H](Cc1ccc2ccccc2c1)C(=O)N[C@@H](CC(=O)O)C(=O)N[C@@H](CCCN=C(N)N)C(=O)N[C@@H](Cc1ccccc1)C(=O)NCC(N)=O" and say whether its Ki is less than 0.6 µM.
Result block: label 0

Query block: Say whether its Ki is strictly beneath 0.6 µM. Entry: "NCCC(=O)N[C@H](Cc1ccc(Cl)cc1Cl)C(=O)N1CCN(c2ncccc2CNC(=O)Cc2ccccc2F)CC1"
Result block: label 1

Consider the record given below.
Query block: Find out if reported Ki for "CC(=O)N[C@@H](Cc1ccc(O)cc1)C(=O)N[C@@H](CCCCN)C(=O)N[C@H]1CSSC[C@@H](C(N)=O)NC(=O)[C@H](Cc2c[nH]c3ccccc23)NC(=O)[C@H](CCCNC(=N)N)NC(=O)[C@@H](Cc2ccccc2)NC(=O)[C@H](Cc2c[nH]cn2)NC(=O)[C@H](CCC(=O)O)NC1=O" is less than 0.6 µM
Result block: label 1
